Hi there, I'd appreciate the recorded Dose.FC.CTG for every entry that follows.
# Test system: ENR+CD organoids
# ASSAY_COMMENT: Primary screen: ATP (CellTiter-Glo 3D, CTG) cell number/viability, 2.5-D 384-well ENR+CD organoids;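 also: compounds given at plating and again on day 3 over a 6-day differentiation from ENR+CV stem-cell-enriched precursors, ATP measured on day 6, plate median as control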
# MEASUREMENT_CONTEXT: primary screen, dose 2.00 uM, FC relative to plate median
Answer in log2 fold change, number only, no unit symbol.

Report the value of Dose.FC.CTG obtained on ENR+CD organoids for `O=C(Nc1cc(C(F)(F)F)ccc1N1CCCCC1)c1ccncc1` .
0.453

Report the value of Dose.FC.CTG obtained on ENR+CD organoids for `Oc1c2ccccc2c2c3c(cccc13)N=N2` .
0.103

Report the value of Dose.FC.CTG obtained on ENR+CD organoids for `CN1CC(=O)N2[C@H](c3ccc4c(c3)OCO4)c3[nH]c4ccccc4c3C[C@@H]2C1=O` .
0.436

Report the value of Dose.FC.CTG obtained on ENR+CD organoids for `CCc1nc(N)nc(N)c1-c1ccc(Cl)cc1` .
−0.416

Report the value of Dose.FC.CTG obtained on ENR+CD organoids for O=C(/C=C/c1ccccc1)NC(NC(=S)Nc1ccc(Cl)cc1)C(Cl)(Cl)Cl (stereo not drawn) .
0.196

Report the value of Dose.FC.CTG obtained on ENR+CD organoids for `CO[C@H]1C[C@@H]2CC[C@@H](C)[C@@](O)(O2)C(=O)C(=O)N2CCCC[C@H]2C(=O)O[C@H]([C@H](C)C[C@@H]2CC[C@@H](OP(C)(C)=O)[C@H](OC)C2)CC(=O)[C@H](C)/C=C(\C)[C@@H](O)[C@@H](OC)C(=O)[C@H](C)C[C@H](C)/C=C/C=C/C=C/1C` .
0.276

Report the value of Dose.FC.CTG obtained on ENR+CD organoids for `CC(C)(C)c1cc(NC(=O)Nc2ccc(-c3cn4c(n3)sc3cc(OCCN5CCOCC5)ccc34)cc2)no1` .
−0.352

Report the value of Dose.FC.CTG obtained on ENR+CD organoids for CCCN[C@H]1CCc2nc(N)sc2C1 [Pramipexole] .
0.026

Report the value of Dose.FC.CTG obtained on ENR+CD organoids for `O=C(Nc1ccncc1)c1cc([N+](=O)[O-])ccc1Cl` .
0.050

Report the value of Dose.FC.CTG obtained on ENR+CD organoids for `CCOC(=O)c1ccc(N2NC(=O)/C(=C/c3ccc([N+](=O)[O-])o3)C2=O)cc1` .
0.161

Report the value of Dose.FC.CTG obtained on ENR+CD organoids for C#CCC(Cc1cnc2nc(N)nc(N)c2n1)c1ccc(C(=O)N[C@@H](CCC(=O)O)C(=O)O)cc1 (stereo partly drawn) [Pralatrexate] .
−0.681

Report the value of Dose.FC.CTG obtained on ENR+CD organoids for `Cc1ccc(-n2nccn2)c(C(=O)N2CCN(c3nc4cc(Cl)ccc4o3)CC[C@H]2C)c1` .
0.375

Report the value of Dose.FC.CTG obtained on ENR+CD organoids for `O=C(Nc1ccccc1-c1cn2c(CN3CCNCC3)csc2n1)c1cnc2ccccc2n1` .
0.339

Report the value of Dose.FC.CTG obtained on ENR+CD organoids for `CC(C)(C)c1cnc(CSc2cnc(NC(=O)C3CCNCC3)s2)o1` .
−0.915

Report the value of Dose.FC.CTG obtained on ENR+CD organoids for `Cc1cc(Nc2ccc(NC(=O)c3ccc(Nc4ccnc5ccccc45)cc3)cc2)nc(N)n1` .
0.172
